Test system: IFNα-induced STAT phosphorylation (pSTAT5) in human whole blood
test_description: IFNα-Induced STAT Phosphorylation in Human Whole Blood
Assay type: cell-based
run_parameters: Homo sapiens, 1 h incubation with compound, 1000 U/mL recombinant human IFNα A/D for 15 min, pSTAT5 in CD3 positive population, read-out: IFNα-Induced Stat Phosph. (IC50)
pIC50: −log10 of the molar value.
Outcome: Satisfied for pIC50 of at least 7; Not satisfied for anything lower.

I'd appreciate it if you could say whether [2H]C([2H])([2H])NC(=O)c1nnc(Nc2ccc(F)cn2)cc1Nc1ncccc1S(C)(=O)=O [Example 1] has pIC50 at least equal to 7.
Satisfied

I'd appreciate it if you could say whether [2H]C([2H])([2H])NC(=O)c1nnc(NC(=O)C2CC2)cc1Nc1ncccc1S(C)(=O)=O [Example 159] has pIC50 at least equal to 7.
Satisfied

I'd appreciate it if you could say whether [2H]C([2H])([2H])NC(=O)c1cnc(Nc2ccc(-c3ccccc3)cn2)cc1Nc1ncccc1S(C)(=O)=O [Example 234] has pIC50 at least equal to 7.
Not satisfied

I'd appreciate it if you could say whether [2H]C([2H])([2H])NC(=O)c1nnc(NC(=O)C2CC(F)(F)C2)cc1Nc1ncccc1S(C)(=O)=O [Example 177] has pIC50 at least equal to 7.
Not satisfied

I'd appreciate it if you could say whether [2H]C([2H])([2H])NC(=O)c1nnc(Nc2ccc(CNC(C)=O)cn2)cc1Nc1ncccc1S(C)(=O)=O [Example 69] has pIC50 at least equal to 7.
Satisfied

I'd appreciate it if you could say whether [2H]C([2H])([2H])NC(=O)c1nnc(Nc2ccc(C(C)(C)OC(C)=O)cn2)cc1Nc1ncccc1S(C)(=O)=O [Example 171] has pIC50 at least equal to 7.
Satisfied
